Compiled IC50 measurements on Lysine-specific demethylase 4A (Homo sapiens, UniProt O75164) taken from the literature.

Take a look at these entries with their results.
# molecule, IC50
rows = [
    ("CC(C#N)NCc1ccnc(CNCCCN(C)C)c1 (centres unmarked)", "> 2.5 µM"),
    ("Cc1cccc(CN(C)CCn2cnc(-c3cc(C(=O)O)ccn3)c2)c1", "≤ 0.1 µM"),
    ("O=C(O)c1ccnc(-n2nccc2OCc2ccccc2)c1", "< 0.1 µM"),
    ("CN(C)CCNCc1ccnc(CNCCCN(C)Cc2ccccc2)c1", "> 2.5 µM"),
    ("Cc1ccc(-c2ccnn2-c2cc(C(=O)O)ccn2)cc1", "0.1 to 1 µM"),
    ("CCN1CCCC1CNC(=O)CNCc1cc(/C=N/C2CC2)ccn1 (centres unmarked)", "0.25 to 2.5 µM"),
]

State recorded IC50 for all listed molecules.
1. O=C(O)c1ccnc2cc(Cc3cc(F)c(Cl)c(Cl)c3)[nH]c12
2. O=C(O)c1ccnc(-c2cn(CCc3ccccc3Cl)cn2)c1
3. Cn1cnc(-c2cc(C(=O)O)ccn2)c1-c1ccc(F)cc1OCC1CC1
4. CN(CCn1cnc(-c2cc(C(=O)NC#N)ccn2)c1)CC1CC1
5. O=C(CNCc1cc(/C=N/C2CC2)ccn1)N1CCC[C@@H]1CN1CCCC1
6. CN(CCn1cnc(-c2cc(C(=O)O)ccn2)c1)Cc1ccc(F)cc1

**A:**
1. 0.1 to 1 µM
2. ≤ 0.1 µM
3. > 10 µM
4. > 10 µM
5. < 0.25 µM
6. ≤ 0.1 µM

State recorded IC50 for all listed molecules.
1. CCN(CC)CCCCNCc1cc(C=O)ccn1
2. CN(C)C(=O)CNCc1cc(CNCC#N)ccn1
3. CCN(CCC#N)C(=O)CNCc1cc(/C=N/C2CC2)ccn1
4. CN(C)C/C=C/CNCc1cc(/C=N/C2CC2)ccn1
5. CCN(CC)CCCCNCc1cc(/C=N\CCC2CCCCC2)ccn1

**A:**
> 2.5 µM
> 2.5 µM
< 0.25 µM
0.25 to 2.5 µM
> 2.5 µM
